Can you tell me Percentage cytotoxicity for the items I'm about to list?
System: U87MG (Glioblastoma)
Assay: MTT cytotoxicity assay, 48 hours (Example 14)
Type: cell-based
Details: 10 nM
Non-standard residues stand in square brackets, D forms with d. Residues, ends and D or L forms follow the SMILES beside them. *: point of attachment. Octanoyl = CCCCCCCC(=O)*; Ac5c = NC1(C(=O)O)CCCC1; Deg = CCC(N)(CC)C(=O)O; Aib = CC(C)(N)C(=O)O; Butyryl = CCCC(=O)*
One number for each entry, in %.

[[record]]
compound = "CCCC(=O)N[C@H](Cc1ccccc1)C(=O)N[C@@H](CCC(N)=O)C(=O)N[C@@H](Cc1c[nH]c2ccccc12)C(=O)N[C@@H](C)C(=O)N[C@H](C(=O)NC(C)(C)C(=O)N[C@@H](Cc1c[nH]cn1)C(=O)N[C@@H](CC(C)C)C(N)=O)C(C)C [SEQ ID: 11] (Butyryl-[dF]QWAV[Aib]HL-NH2)"
measure_name = "Percentage cytotoxicity"
measured = 20.0


Go through the list and state Percentage cytotoxicity for each entry.
1. CCC(CC)(NC(=O)[C@H](Cc1c[nH]c2ccccc12)NC(=O)[C@H](CCC(N)=O)NC(=O)[C@H](N)Cc1ccccc1)C(=O)N[C@H](C(=O)NCC(=O)N[C@@H](Cc1c[nH]cn1)C(=O)N[C@@H](CC(C)C)C(N)=O)C(C)C [SEQ ID: 9, D-Phe-Gln-Trp-Deg-Val-Gly-His-Leu-NH2] (H-[dF]QW[Deg]VGHL-NH2; N-terminus assumed)
2. CC(C)C[C@H](NC(=O)[C@H](Cc1c[nH]cn1)NC(=O)C1(NC(=O)[C@@H](NC(=O)[C@H](C)NC(=O)[C@H](Cc2c[nH]c3ccccc23)NC(=O)[C@H](CCC(N)=O)NC(=O)[C@H](N)Cc2ccccc2)C(C)C)CCCC1)C(N)=O [SEQ ID: 10, D-Phe-Gln-Trp-Ala-Val-Ac5c-His-Leu-NH2] (H-[dF]QWAV[Ac5c]HL-NH2; N-terminus assumed)
3. CCCCCCCC(=O)N[C@H](Cc1ccccc1)C(=O)N[C@@H](CCC(N)=O)C(=O)N[C@@H](Cc1c[nH]c2ccccc12)C(=O)N[C@@H](C)C(=O)N[C@H](C(=O)NC(C)(C)C(=O)N[C@@H](Cc1c[nH]cn1)C(=O)N[C@@H](CC(C)C)C(N)=O)C(C)C [SEQ ID: 12] (Octanoyl-[dF]QWAV[Aib]HL-NH2)

Key:
1. 20.0
2. 20.0
3. 27.5

Reference for the values: patent US6989371B1
